Tested on: U2OS
run-description: Here: values are normalized to the positive (DMSO; basel flux = defined as 100% suppression) and negative (250nM Torin1; mTOR inhibitor; maximal inducer of autophagy defined as 0% suppression) control compounds and represented as % of ER-phagy suppression. […] The impact of autophagy induction on cells is complex and depends on the affected target. […] Of note, treatment concentrations may be sub-optimal for specific compounds, leading to false negative annotations.
Assay type: functional, Homo sapiens
condition-details: Compound Concentration 1 uM, Timepoint 24 hours, Culturing Media DMEM, 1 % Penicillin/Streptomycin, 10% Fetal bovin serum Add-On: blasticidin, Screening Media Control DMEM, 10% Fetal bovin serum Add-On: 1 µg/ml Doxycyclin, Screening Media Samples DMEM, 10% Fetal bovin serum Add-On: 1 µg/ml Doxycyclin 250nM Torin1
Some compounds, each annotated with its measured ER-phagy suppression.
Numbers only here, please. The scale is %.

[
  {
    "compound": "Cc1cc(Nc2nccc(C)n2)cc(-c2cnc([C@@]3(O)CC[C@H](C(=O)O)C(C)(C)C3)s2)c1",
    "unit-symbol": "%",
    "readout-number": -15.4814
  },
  {
    "compound": "C[C@@H]1COCCN1c1cc(C2([S@](C)(=N)=O)CC2)nc(-c2cc[nH]c3nccc2-3)n1",
    "unit-symbol": "%",
    "readout-number": -14.6462
  },
  {
    "compound": "COc1cc(N(C)c2ccnc3ccc(C(F)(F)F)cc23)cc(OC)c1OC",
    "unit-symbol": "%",
    "readout-number": 0.8414
  },
  {
    "compound": "CC(=O)Nc1ccc2ccn(-c3cc(NC4CC4)n4ncc(C#N)c4n3)c2c1",
    "unit-symbol": "%",
    "readout-number": 48.9829
  },
  {
    "compound": "COc1cc(C2c3cc4c(cc3[C@H](O)[C@H]3COC(=O)[C@@H]23)OCO4)cc(OC)c1OC (stereo partly specified)",
    "unit-symbol": "%",
    "readout-number": -2.596
  }
]

Given the compound `CNCc1ccc(-c2cc(-c3nc(-c4ccc(S(=O)(=O)C(C)C)cc4)cnc3N)on2)cc1` , write its reported ER-phagy suppression.
96.408

---

Some compounds, each annotated with its measured autophagy induction.
Test system: TERT-RPE1
run-description: Here: values are normalized to the negative (DMSO; defined as 0% autophagy induction) and positive (250nM Torin1; mTOR inhibitor; defined as maximal inducer of autophagy = 100%) control compounds and represented as % of autophagy induction. […] The impact of autophagy induction on cells is complex and depends on the affected target. As such, the magnitude of a phenotype may not be equally mirrored in the %-value of autophagy induction and vice versa. The dynamics of the induction may indicate the mode of activation: e.g. activation via phosphorylation or a signaling cascade may occur fast, while activation via transcription factors may take considerably longer. […] Of note, treatment concentrations may be sub-optimal for specific compounds, leading to false negative annotations.
Format: functional, Homo sapiens
condition-details: Compound Concentration 10 uM, Timepoint 60 hours, Culturing Media DMEM/F12 (1:1), 1 % Penicillin/Streptomycin, 10% Fetal bovin serum Add-On: No, Screening Media Control DMEM/F12 (1:1), Screening Media Samples DMEM/F12 (1:1)
Numbers only here, please. The scale is %.

Solved entries:
[
  {
    "compound": "CS(=O)(=O)NC[C@H]1CC[C@H](Nc2nc3c(s2)CCSc2ccccc2-3)CC1",
    "autophagy induction, %": 5.565
  },
  {
    "compound": "C[C@H](Cc1cc2c(c(C(N)=O)c1)N(CCCO)CC2)NCCOc1ccccc1OCC(F)(F)F [SILODOSIN]",
    "autophagy induction, %": -1.313
  },
  {
    "compound": "Cc1cc(C)cc(C(=O)N(C)[C@H](Cc2ccc(-c3ccccc3)cc2)C(=O)N[C@@H](Cc2c[nH]c3ccccc23)C(=O)O)c1",
    "autophagy induction, %": -5.126
  },
  {
    "compound": "COc1ccccc1CN[C@H]1C2CCN(CC2)[C@H]1C(c1ccccc1)c1ccccc1 [CP-96345]",
    "autophagy induction, %": 2.279
  },
  {
    "compound": "CC(C)NCC(O)c1ccc(N)c(C#N)c1 (stereo not drawn) [CIMATEROL]",
    "autophagy induction, %": -0.2093
  },
  {
    "compound": "CCOC(=O)c1cc(C#N)c(N2CCC(C(=O)NS(=O)(=O)Cc3ccccc3)CC2)nc1C",
    "autophagy induction, %": -9.708
  }
]

Given the compound `O=C(Nc1ccc(Cl)cc1)Nc1cccc(-c2cccc(N3CCCC3)n2)c1` , write its reported autophagy induction.
64.0305

Given the compound `C/C(=N\NC(=O)[C@@H]1C(=O)NC[C@H]1c1ccccc1)c1cccc(Br)c1` , write its reported autophagy induction.
-9.435

Given the compound CCc1cc(C(C)=O)c(O)cc1OCCCCCC(C)(C)c1nn[nH]n1 [LY-255283] , write its reported autophagy induction.
-5.811

Given the compound C[C@]1(C(=O)N(CCCC(=O)O)Cc2cccc(Cl)c2)CCN1C(=O)c1csc2ccccc12 [GLPG-0974] , write its reported autophagy induction.
-14.0611

Given the compound `COc1ccnc(N2CCC3(CCCN(Cc4c[nH]c5ccccc45)C3=O)CC2)n1` , write its reported autophagy induction.
-9.531

Given the compound CN(C(=O)Cc1ccc(Cl)c(Cl)c1)C(CN1CCCC1)c1cccc(OCC(=O)O)c1.Cl (stereo not drawn) , write its reported autophagy induction.
-2.992

Given the compound O=c1[nH]c2ccccc2n1CCCN1CCN(C(c2ccccc2)c2ccccc2)CC1 [OXATOMIDE] , write its reported autophagy induction.
-2.469

Given the compound `Cc1nnn(-c2ccc(-c3ccc(C4(C(=O)O)CC4)cc3)cc2)c1NC(=O)O[C@H](C)c1ccccc1` , write its reported autophagy induction.
33.5372

Given the compound `N#Cc1c(N)nc(SCC(N)=O)c(C#N)c1-c1ccc(OCC2CC2)cc1` , write its reported autophagy induction.
26.9726

Given the compound `COc1ccc(S(=O)(=O)c2cc(OC)ccc2S(=O)(=O)c2ccc([C@H](C)NS(C)(=O)=O)cc2)cc1` , write its reported autophagy induction.
-5.175

Given the compound `Cc1csc(NC(=O)c2cc(F)cc(Oc3cncnc3)c2)n1` , write its reported autophagy induction.
-4.061

Given the compound `CC(C)NC(=O)c1ccc(C#Cc2ccncc2)cn1` , write its reported autophagy induction.
16.9694
